# MEASURED_ON: Gal(b1-3)GalNAc(b1-4)Gal(b1-4)Glc
# ASSAY_REMARKS: glycan array binding signal (z-score within array); higher = stronger binding
# CONDITION_SET: glycan notation: IUPAC condensed, linker removed
About 410 targets per protein were measured; listed, in parts, are those with the strongest signals and a random draw of the rest.
Consider the reported glycan array binding signal (z-score) of an entry and match it to a band in class 0 (below -0.3), class 1 (-0.3 to below 3), class 2 (3 or more)

Asked: Class for IRp60B (Homo sapiens), Q9UGN4-3 (protein) MWLPWALLLLWVPAGDHSELSQNPKQAATQSELHYANLELLMWPLQEKPAPPREVEVEYSTVASPREELHYASVVFDSNTNRIAAQRPREEEPDSDYSVIRKT ?
Given back: class 1

Asked: Class for Pp2-A2 (Arabidopsis thaliana), Q07098 (protein) MPSNGDLDRQIEQLMECKPLSEADVRTLCDQARAILVEEYNVQPVKCPVTVCGDIHGQFYDLIELFRIGGNAPDTNYLFMGDYVDRGYYSVETVSLLVALKVRYRDRLTILRGNHESRQITQVYGFYDECLRKYGNANVWKYFTDLFDYLPLTALIESQVFCLHGGLSPSLDTLDNIRSLDRIQEVPHEGPMCDLLWSDPDDRCGWGISPRGAGYTFGQDIAAQFNHNNGLSLISRAHQLVMEGFNWCQDKNVVTVFSAPNYCYRCGNMAAILEIGENMEQNFLQFDPAPRQVEPDTTRKTPDYFL ?
Given back: class 1

Asked: Class for SLLPI (Homo sapiens), Q8IXA5 (protein) MVSALRGAPLIRVHSSPVSSPSVSGPRRLVSCLSSQSSALSQSGGGSTSAAGIEARSRALRRRWCPAGIMLLALVCLLSCLLPSSEAKLYGRCELARVLHDFGLDGYRGYSLADWVCLAYFTSGFNAAALDYEADGSTNNGIFQINSRRWCSNLTPNVPNVCRMYCSDLLNPNLKDTVICAMKITQEPQGLGYWEAWRHHCQGKDLTEWVDGCDF ?
Given back: class 1

Asked: Class for rCNL (Clitocybe nebularis), B2ZRS9 (protein) SITPGTYNITNVAYTNRLIDLTGSNPAENTLIIGHHLNKTPSGYGNQQWTLVQLPHTTIYTMQAVNPQSYVRVRDDNLVDGAALVGSQQPTPVSIESAGNSGQFRIKIPNLGLALTLPSDANSTPIVLGEVDETSTNQLWAFESVSAV ?
Given back: class 1

Asked: Class for CFEM-PPm (Pichia pastoris), F2QPV1 (protein) AVATPPACLLACAAEVVKESSDCDALNNIQCICENEGSAIHACLESTCPDGLSSTALQSFEDVCE ?
Given back: class 2

Asked: Class for STA (Solanum tuberosum), Q9S8M0 (protein) NASPPSPSPLPYPQCGMKKGGGKCIKTGECCSIWGWCGTTNAYCSPGYCQKQCPGPYPEGRCGWQANGKSCPTGTGQCCSNGGWCGTTSDYCASKNCQSQCKLPSPPPPPPPPSPPPPSPPSPPPPSPPPPPPPSPPPPSPPPPSPSPPPPPASPPPPPPALPYPQCGIKKGGGKCIKTGECCSIWGWCGTTNAYCSPGYCQKQCPGPYPEGRCGWQANGKSCPTGTGHCCSNAGWCGTTSDYCAPVNCQAQCNTTTLTSPIKNRMRGIESFMLNVV ?
Given back: class 0

Asked: Class for CFEM-PPl (Pichia pastoris), F2QPV1 (protein) AVATPPACLLACAAEVVKESSDCDALNNIQCICENEGSAIHACLESTCPDGLSSTALQSFEDVCESVGTEANLDE ?
Given back: class 2

Asked: Class for PpFlo1 (Pichia pastoris) (protein) MGSSHHHHHHSSGLVPRGSHMQESGDGDISDSAYACDIDATRYDGFNATIYEFQPGDGRLTRDPVFMSTGYLNRTQLHSITGVTDPGFSIYTPGVPTTTLYGIPNVNWENLLLELKGYFRAEVSGDYGLSLRNIDDSAILFFGKETAFQCCNENSISNEASTDYSLFTIFRQEGDETTNLDSFTYTQYLEAGKYYPVRTFFVNIERHAVFNFTMTLPDGTELTDFHNYIYQFGALDEEQCQA ?
Given back: class 2

Asked: Class for CD83 (Homo sapiens) (protein) MSRGLQLLLLSCAYSLAPATPEVKVACSEDVDLPCTAPWDPQVPYTVSWVKLLEGGEERMETPQEDHLRGQHYHQKGQNGSFDAPNERPYSLKIRNTTSCNSGTYRCTLQDPDGQRNLSGKVILRVTGCPAQRKEETFKKYRAETSEQKLISEEDLSRGSDDDDKAEPRGP ?
Given back: class 1

Asked: Class for CLEC-6 (Homo sapiens), Q8WXI8 (protein) MGLEKPQSKLEGGMHPQLIPSVIAVVFILLLSVCFIASCLVTHHNFSRCKRGTGVHKLEHHAKLKCIKEKSELKSAEGSTWNCCPIDWRAFQSNCYFPLTDNKTWAESERNCSGMGAHLMTISTEAEQNFIIQFLDRRLSYFLGLRDENAKGQWRWVDQTPFNPRRVFWHKNEPDNSQGENCVVLVYNQDKWAWNDVPCNFEASRICKIPGTTLN ?
Given back: class 0

Asked: Class for GIINTLQKYYCRVRGGRCAVLSCLPKEEQIGKCSTRGRKCCRRKK [Beta-Defensin 3 (Homo sapiens), P81534] ?
Given back: class 0

Asked: Class for GNL (Galanthus nivalis) (protein) MGHHHHHHHHYGTLENGHWLMVGMSIFSKDRTVELRMQDDGKLAIYYNDHCAWQSTAQQVNNAKGAVMQGDGNFCIYDKNGKATWHTNTAAPSGDSHTFVSVQDDGNLVLYKNNGATPIWSSKSNK ?
Given back: class 1

Source listed as the supplement of paper PMC8728848.
